Test: Solubility at 25 degree C and pH of 5.0
Format: physicochemical
Conditions: pH 5; read-out: S
Non-standard residues stand in square brackets, D forms with d. Residues, ends and D or L forms follow the SMILES beside them. Pip = O=C(O)[C@@H]1CCCCN1; dPip = O=C(O)[C@H]1CCCCN1
readoutLabel: solubility

Reported solubility for CC[C@H](C)[C@@H]1NC(=O)[C@@H](Cc2c[nH]c3ccccc23)NC(=O)[C@@H]2CCCN2C(=O)[C@@H](Cc2c[nH]cn2)NC(=O)[C@@H]2CCCCN2C(=O)[C@H]2CCCCN2C1=O (cyclo(I[dPip][Pip][dH]P[dW])) : what is it?
2000 µg/mL

###

log10 of Ki listing for selected molecules.
Target: Vasopressin V1 receptor (Rattus norvegicus, UniProt P48974+P30560)
Assay: Inhibition of [3H]arginine vasopressin binding to rat liver Vasopressin V1 receptor
Non-standard residues stand in square brackets, D forms with d. Residues, ends and D or L forms follow the SMILES beside them. dNMeF = CN[C@H](Cc1ccccc1)C(=O)O; Pip = O=C(O)[C@@H]1CCCCN1; dPip = O=C(O)[C@H]1CCCCN1; Orn = NCCC[C@H](N)C(=O)O
A value of 2 here means Ki of 100 in nM, since values are log10.

Sample records with log10 of Ki:
{"molecule": "CC[C@H](C)[C@@H]1NC(=O)[C@@H](Cc2ccc3ccccc3c2)NC(=O)[C@@H]2CCCN2C(=O)[C@@H](Cc2c[nH]cn2)NC(=O)[C@@H]2CCCCN2C(=O)[C@H]2CCCCN2C1=O", "readoutLabel": "log10 of Ki", "result": 2.88}
{"molecule": "CC[C@H](C)[C@@H]1NC(=O)[C@@H](Cc2c[nH]c3ccccc23)NC(=O)[C@@H]2CCCN2C(=O)[C@@H](Cc2ccccc2)N(C)C(=O)[C@H](CCCN)NC(=O)[C@H]2CCCCN2C1=O (cyclo(I[dPip][Orn][dNMeF]P[dW]))", "readoutLabel": "log10 of Ki", "result": 3.00}
{"molecule": "CC[C@H](C)[C@@H]1NC(=O)[C@@H](Cc2ccccc2)NC(=O)[C@@H]2CCCN2C(=O)[C@@H](Cc2ccccc2)N(C)C(=O)[C@@H]2CCCN2C(=O)[C@H]2CCCN2C1=O (cyclo([dNMeF]P[dF]I[dP]P))", "readoutLabel": "log10 of Ki", "result": 3.97}
{"molecule": "CC[C@H](C)[C@@H]1NC(=O)[C@@H](Cc2c[nH]c3ccccc23)NC(=O)[C@@H]2CCCN2C(=O)[C@@H](Cc2ccccc2)N(C)C(=O)[C@@H]2CCCCN2C(=O)[C@H]2CCCCN2C1=O (cyclo(I[dPip][Pip][dNMeF]P[dW]))", "readoutLabel": "log10 of Ki", "result": 3.54}
{"molecule": "CC[C@H](C)[C@@H]1NC(=O)[C@@H](Cc2c[nH]c3ccccc23)NC(=O)[C@@H]2CCCN2C(=O)[C@@H](Cc2c[nH]cn2)NC(=O)[C@@H]2CCCCN2C(=O)[C@H]2CCCCN2C1=O (cyclo(I[dPip][Pip][dH]P[dW]))", "readoutLabel": "log10 of Ki", "result": 3.34}

# query: log10 of Ki of entry `CC[C@H](C)[C@@H]1NC(=O)[C@@H](Cc2ccccc2)NC(=O)[C@@H]2CCCN2C(=O)[C@@H](Cc2ccccc2)N(C)C(=O)[C@@H]2CCCCN2C(=O)[C@H]2CCCCN2C1=O`
2.95

Given the entry CCOc1ccc(C[C@H]2NC(=O)[C@@H]3CCCN3C(=O)[C@@H](Cc3ccccc3)N(C)C(=O)[C@@H]3CCCCN3C(=O)[C@H]3CCCCN3C(=O)[C@H]([C@@H](C)CC)NC2=O)cc1 (cyclo(I[dPip][Pip][dNMeF]P[dY](Et))) , report its measured log10 of Ki.
4.30

// query log10 of Ki value for entry CC[C@H](C)[C@@H]1NC(=O)[C@@H](Cc2ccccc2)NC(=O)[C@@H]2CCCN2C(=O)[C@@H](Cc2ccccc2)NC(=O)[C@@H]2CCCCN2C(=O)[C@H]2CCCCN2C1=O (cyclo(I[dPip][Pip][dF]P[dF]))
3.20

Data origin: ChEMBL document CHEMBL1124811
